Origin of values: ChEMBL document CHEMBL1155040

assay: Toxicity in ip dosed Swiss Webster mouse; type: organism-based; conditions: in vivo
# LD50 annotations
Just the number please, in mg/kg, no unit attached.

O=[N+]([O-])/N=C1\NCCN1Cc1ccc(Cl)nc1 [IMIDACLOPRID]: 45

In the following, a different compound is considered.
response.value for N#C/N=C1\SCCN1Cc1ccc(Cl)nc1 [THIACLOPRID] (field: LD50) = 28

---

assay: Displacement of [3H]IMI from nAChR in Drosophila brain
parameter: IC50 (nM)
Just the number please, in nM, no unit attached.

Before answering, review these 3 worked examples.
O=C(/N=c1\sccn1Cc1ccc(Cl)nc1)c1ccncc1: 10
O=C(/N=c1\sccn1Cc1ccc(Cl)nc1)c1ccccc1: 121
O=C(/N=c1\sccn1Cc1ccc(Cl)nc1)C(F)(F)F: 3.1

In the following, a different compound is considered.
response.value for O=C(/N=c1\sccn1Cc1ccc(Cl)nc1)c1ccccn1 (field: IC50) = 13

---

test: Displacement of [3H]IMI from peach-potato aphid alpha2/rat beta2 nAChR hybrid recombinant receptor
# IC50 annotations
Just the number please, in nM, no unit attached.

Before answering, review these 3 worked examples.
O=C(/N=c1\sccn1Cc1ccc(Cl)nc1)C(F)(F)F: 280
O=[N+]([O-])/N=C1\NCCN1Cc1ccc(Cl)nc1: 3.6
N#C/N=C1\SCCN1Cc1ccc(Cl)nc1: 11

In the following, a different compound is considered.
response.value for O=C(/N=c1\sccn1Cc1ccc(Cl)nc1)c1cnccn1 (field: IC50) = 720

---

molecular target: Neuronal acetylcholine receptor subunit alpha-4 (Gallus gallus, UniProt P09482+P09484); test: Displacement of [3H]nicotine from chick alpha4beta2 nAChR
Sequence (P09482 whole entry, one chain of several): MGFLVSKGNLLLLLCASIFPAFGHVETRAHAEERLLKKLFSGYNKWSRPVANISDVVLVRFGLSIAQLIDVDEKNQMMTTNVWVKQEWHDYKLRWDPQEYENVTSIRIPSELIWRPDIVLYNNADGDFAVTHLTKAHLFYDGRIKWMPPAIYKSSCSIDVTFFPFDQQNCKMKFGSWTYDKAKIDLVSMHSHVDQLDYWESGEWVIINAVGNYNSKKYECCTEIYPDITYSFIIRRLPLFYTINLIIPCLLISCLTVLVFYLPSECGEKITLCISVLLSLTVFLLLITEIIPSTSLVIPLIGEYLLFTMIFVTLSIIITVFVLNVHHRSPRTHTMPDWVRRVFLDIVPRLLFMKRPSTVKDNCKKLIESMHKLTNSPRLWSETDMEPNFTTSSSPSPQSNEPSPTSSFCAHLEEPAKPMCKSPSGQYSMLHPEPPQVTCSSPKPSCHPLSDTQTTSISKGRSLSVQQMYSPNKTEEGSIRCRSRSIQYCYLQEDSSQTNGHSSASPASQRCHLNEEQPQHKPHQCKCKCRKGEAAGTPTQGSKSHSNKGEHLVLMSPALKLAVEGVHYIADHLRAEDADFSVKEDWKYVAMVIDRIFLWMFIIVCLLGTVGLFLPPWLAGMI
parameter: pIC50
Quick note: pIC50 means taking -log10 of the concentration in moles per liter.

Before answering, review these 3 worked examples.
O=C(/N=c1\sccn1Cc1ccc(Cl)nc1)c1cnccn1: 6.05
N#C/N=C1\SCCN1Cc1ccc(Cl)nc1 [THIACLOPRID]: 6.07
O=C(/N=c1\sccn1Cc1ccc(Cl)nc1)C(F)(F)F: 6.30

In the following, a different compound is considered.
Tested system Neuronal acetylcholine receptor subunit alpha-4 (Gallus gallus, UniProt P09482+P09484); pIC50 recorded for O=[N+]([O-])/N=C1\NCCN1Cc1ccc(Cl)nc1 [IMIDACLOPRID] was 5.59

---

test: Displacement of [3H]IMI from nAChR in Drosophila brain
// boundary case: IC50 equal to 4 nM maps to Not fulfilled; strictly smaller maps to Fulfilled

O=C(/N=c1\[nH]ccn1Cc1ccc(Cl)nc1)C(F)(F)F: Not fulfilled
O=C(/N=c1\sccn1Cc1ccc(Cl)nc1)c1ccc(Cl)cc1: Not fulfilled
N#C/N=C1\SCCN1Cc1ccc(Cl)nc1: Fulfilled
O=C(/N=c1\sccn1Cc1ccc(Cl)nc1)c1cnccn1: Fulfilled
O=C(/N=c1\sccn1Cc1ccc(Cl)nc1)c1cccnc1: Not fulfilled

Ask: Does the reported IC50 of the following molecule sit strictly below 4 nM? O=[N+]([O-])/N=C1\NCCN1Cc1ccc(Cl)nc1
Reply: Not fulfilled

Ask: Does the reported IC50 of the following molecule sit strictly below 4 nM? O=C(/N=c1\sccn1Cc1ccc(Cl)nc1)c1ccc(Cl)nc1
Reply: Not fulfilled
